Parameter growth inhibition: see the listing below.
experiment: NCI Yeast Anticancer Drug Screen. Data for the sgs1 mgt1 strain (AID 161);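 also: 0% = growth of cultures given vehicle only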; conditions: S. cerevisiae sgs1 mgt1 strain, at 50.0 µM, stronger effect = higher value
This is part of a sample that, as a whole, favours compounds with a hit. Of some 79,000 tested, about 15% had one in any assay. Activity calls are given as the source filed them. Rule as the data show it: active = growth inhibition above about 70%; inactive = the rest.

Compound	growth inhibition
CN(C)c1ccc(/C=C/c2ccnc3c(N)cccc23)cc1	-14.4% (inactive)
COc1ccc2nccc(C(=O)CCC3CCN(C(=O)c4ccc([N+](=O)[O-])cc4)CC3C(CBr)CCBr)c2c1 (stereo not given)	26.6% (inactive)
CCc1cccc(CC)c1NC(=S)NC(=O)c1ccc(Br)cc1	-7.9% (inactive)
CCCc1c(C(=O)OCC)[nH]c(C(=O)CCC(=O)c2[nH]c(C(=O)OCC)c(CCC)c2C(=O)OCC)c1C(=O)OCC	-10.9% (inactive)
O=C(O)c1cc(=O)[nH]c(SCc2ccc(Cl)cc2Cl)n1	-7.05% (inactive)

====

assay: NCI Yeast Anticancer Drug Screen. Data for the mec2-1 strain (AID 157); details: S. cerevisiae mec2-1 strain, at 50.0 µM, stronger effect = higher value
The panel holds about 79,000 compounds, 15% with a hit somewhere; the sample as a whole holds those more often.

Compound	Readout unit	growth inhibition
C[N+](C)(N)CCC[N+](C)(C)N	%	5.2
CC(CN(C)C)Oc1ccc2c(c1)C(=O)C(C)C2 (stereo not drawn)	%	-5.25
Cc1ccc2c(=O)[nH]cnc2c1	%	-23.2
O=C1CSC(c2cccc(Cl)c2)N1c1ccc(-n2c(-c3ccccc3)nc3ccccc3c2=O)cc1 (stereo not drawn)	%	9.65
O=C(NCC(F)(F)C(F)(F)C(F)(F)C(F)(F)C(F)(F)C(F)(F)C(F)(F)F)Oc1ccccc1	%	3.3
CC1(C)CO/C(=C/C(=O)c2ccccc2)N1C(=O)c1ccccc1	%	11.7
CCOC(=O)C(O)C(O)C(O)C(O)C(=O)OCC (stereo not drawn)	%	-8.15
CCN(CC)CCN1C(=O)c2cccc3c(N)c(OC)cc(c23)C1=O	%	-27.8
OCCN(CO)CCO	%	6.35
CN1C(=O)C2C=CC1c1ccccc12 (stereo not drawn)	%	-3.95
O=C1c2ccccc2C(=O)N1N1C(=O)C2C3CCC(O3)C2C1=O (stereo not drawn)	%	0.4
O=[N+]([O-])c1cc(F)cc(I)c1	%	-38.6
O=C(O)c1ccc(F)c([N+](=O)[O-])c1	%	-16.6

====

test: NCI Yeast Anticancer Drug Screen. Data for the bub3 strain (AID 167); details: S. cerevisiae bub3 mutant strain, at 50.0 µM, stronger effect = higher value
Compounds without any hit were thinned out: in the full panel of roughly 79,000, 15% have a hit.
Observable: growth inhibition (%)

Molecule	Observable	Test result
Clc1cc(Cl)c2ccc3c(Cl)cc(Cl)c4ccc1c2c43	growth inhibition	-30.8
CS/C1=C(\c2ccc(C)cc2)N(c2ccccc2)C(=O)C(=O)N(c2ccccc2)/C(c2ccc(C)cc2)=C(/SC)SS1	growth inhibition	8
C/C(Nc1ccc(Cl)cc1)=C1/CCOC1=O	growth inhibition	11.7
CCOC(=O)C1SC(=Nc2ccc(OC)c(OC)c2)N=C1C (stereo unspecified)	growth inhibition	29.9
O=c1[nH][nH]c(=O)c2[nH]cnc12	growth inhibition	-6.3
CNCCC(Oc1ccccc1OC)c1ccccc1 (stereo unspecified)	growth inhibition	5.25
CCOC(=O)/C(O)=C(/C=N\C(=S)Nc1ccccc1Cl)C(=O)OCC	growth inhibition	-26.2
CCCc1c(C(=O)OCC)[nH]c(C(=O)CCC(=O)c2[nH]c(C(=O)OCC)c(CCC)c2C(=O)OCC)c1C(=O)OCC	growth inhibition	-15.7
COc1ccccc1C1C2=C(COC2=O)Oc2cc3c(cc21)OCO3 (stereo unspecified)	growth inhibition	0.4
C(=N\c1nccs1)/c1ccc(/C=N/c2nccs2)cc1	growth inhibition	12.1
O=C(NCCCl)NCc1cccc2c1CCCC2	growth inhibition	-3.1

====

assay: NCI Yeast Anticancer Drug Screen. Data for the bub3 strain (AID 167); conditions: S. cerevisiae bub3 mutant strain, at 50.0 µM
This is part of a sample that, as a whole, favours compounds with a hit. Of some 79,000 tested, about 15% had one in any assay. Active and inactive are the calls of the source. No stated cut-off is given here; in the data, active means growth inhibition above about 70%; inactive means the rest.
Outcome codes: True (active), False (inactive)

Molecule	Assigned class
CCc1ccc2[nH]nc(CCC(=O)O)c(=O)c2c1	False
Cc1ccc(SCC(=O)O)c(C)c1	False
Clc1ccc(C(Cl)(Cl)C(Cl)(Cl)Cl)cc1	False
Cc1ccc(C(C)C)cc1NC(=O)NCCCl	False
OCC1OC(Nc2ccc(F)cc2)C(O)C1O (stereo unspecified)	False
CC(C)=CC(=O)OC1C2C(C)=CC(=O)C(O)C2(C)C2C3(O)OCC24C(CC(=O)OC14)C(C)C3O (stereo unspecified)	True
COc1ccc(NC(=O)/C(Cc2cc(=O)oc3cc(O)ccc23)=N\NC(C)(C)C)c(OC)c1	False
N#Cc1cc2ccccc2n(Cc2ccccc2)c1=O	False
CCN=C(N)CSS(=O)(=O)O	False
CC(C)/C=N\n1c(N)c(C#N)c(C#N)c1C(C)C	False
CCCCCCCCCCCCOc1ccccn1	False
C=CCC1(C(=O)NC)c2ccccc2-c2ccccc21	False
O=C(CC(C(=O)c1ccsc1)c1cccs1)c1ccsc1 (stereo unspecified)	False
Cc1ccc2c(c1)c1ccc3c(c1n2C)C(=O)C=CC3=O	False
Cc1nc2ccccn2c1N=Nc1ccc(C(=O)NN)cc1	False
O=C1C2=C(c3ccccc31)C(c1ccc(Cl)cc1)N1C(=O)CCSC1=N2 (stereo unspecified)	False
O=C1CNC(=O)N1Nc1ccccc1	False
CCOc1c2ccsc2c(OCC)c2ccsc12	False
CCOC(=O)Nc1cc(Nc2ccc(Cl)cc2)c2nc(-c3ccc(Cl)cc3)c(-c3ccc(Cl)cc3)nc2n1	False
[NH-]c1ncnc2c1N=C[N+]2=CC=CCO	False
CCCCCCCCCCCCC(N)C(=O)O (stereo unspecified)	False
CNCSc1ccccc1	False
CC(=O)C(CN1CCOCC1)C(C)(C)O (stereo unspecified)	False
Cc1cc2nn(C3CCCCO3)nc2cc1C (stereo unspecified)	False
CN1C(=O)N/C(=C\c2ccc(S(=O)(=O)N/N=C\C(O)C(O)C(O)CO)cc2)C1=O (stereo unspecified)	False
Cc1ccc(C(N)=O)cc1	False

====

assay: NCI Yeast Anticancer Drug Screen. Data for the mec2-1 strain (AID 157); settings: S. cerevisiae mec2-1 strain, at 50.0 µM, stronger effect = higher value
Compounds without any hit were thinned out: in the full panel of roughly 79,000, 15% have a hit.
Parameter growth inhibition: see the listing below.
Observable: growth inhibition (%)

Compound	Observable	Test result
OCC(OC/C=C/CCl)c1ccc(Cl)cc1 (stereo unspecified)	growth inhibition	8.7
O=C(/C=C/c1ccc(Cl)cc1)c1cc(Cl)ccc1O	growth inhibition	-25.3
O=C(OCc1ccccc1)/C(c1ccccc1)=[N+]1/C(=S)Nc2ccc([N+](=O)[O-])cc21	growth inhibition	-5
COc1cc(OC)c2c(=O)cc(-c3ccc(OC)c(OC)c3OC)oc2c1	growth inhibition	-23.6
CC(C1=CC=C2[C@@H]3CCC4CC(N(C)C)CC[C@]4(C)C3CC[C@]12C)N(C)C=O (stereo partly specified)	growth inhibition	8.6
CC(=O)/C(C)=C\C=C(\C)C(C)=O	growth inhibition	-11.5
CS[C@]12C(=O)C[C@@]3(C)[C@@H](CC[C@]3(O)C(=O)CO)[C@@H]1CCC1=CC(=O)CC[C@@]12C	growth inhibition	-24
O=S1(=O)OCCOS(=O)(=O)C1S(=O)(=O)c1cccc2ccccc12	growth inhibition	-5.95
O=C(O)c1cc(/C=C/c2ccccc2)ccc1[N+](=O)[O-]	growth inhibition	25.5
CC(=O)Nc1ccccc1O	growth inhibition	-15.2
Cc1ccc(OC/C=C/c2ccc([N+](=O)[O-])cc2)cc1	growth inhibition	-9.3

====

experiment: NCI Yeast Anticancer Drug Screen. Data for the cln2 rad14 strain (AID 165);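 also: 0% = growth equal to vehicle treated cultures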; conditions: S. cerevisiae cln2 rad14 strain, at 50.0 µM, stronger effect = higher value
About 79,000 compounds went through this panel and 15% of them were active in at least one assay; those are over-represented in the sample as a whole.
Observable: growth inhibition (%)

Compound	Readout unit	Test result
c1ccc2c(c1)CCCC(N1CCOCC1)C2 (stereo not drawn)	%	11.1
CCCCC(N)=O	%	5.7
CCCCCCCCCCCOC(=O)CCl	%	-12.3
O=C(CCN1CCCCC1)c1cc2cc([N+](=O)[O-])ccc2oc1=O	%	-17.8
CN(C)CCNC(=O)c1nc([N+](=O)[O-])cn1C	%	7.35
COC(=O)C1(C(=O)OC)C/C(C)=C(/C)SCCCS1	%	19.9
COC1(C)COC(C)(OC)CO1 (stereo not drawn)	%	13.6
CCOC(=O)C(=Cn1ccc(=O)[nH]c1=S)C(=O)OCC	%	9.35
O=C1C(OCc2ccccc2)=C(c2ccccc2)C(=O)N1c1ccccc1	%	24.8
COc1ccc2c(c1)c1ccc3c(c1n2C)C(=O)C=CC3=O	%	11
CC1=C(CCC#N)C(=O)C(CCC#N)C(C)(C)C1 (stereo not drawn)	%	-29.6
Cc1csc(-n2nc(C)cc2C)n1	%	6.75
CN1CCC(OC(=O)C(O)C2CCCCC2)CC1 (stereo not drawn)	%	31.2
